TGI: recorded values
System: SF-539 CNS
Test: NCI tumour cell line growth inhibition, 48 h

>  <Compound>
Cc1ccc(S(=O)(=O)N/N=C/c2oc(-c3cccc([N+](=O)[O-])c3)c(-c3cccc([N+](=O)[O-])c3)c2[N+](=O)[O-])cc1

>  <Value reported>
> 100 µM

$$$$

Shift focus to the following entry.
Which TGI is reported for this compound? `Cc1[nH]c2ncn(/N=C/c3ccccc3O)c(=N)c2c1Cc1ccccc1`
> 100 µM

###

Tested on: RXF 393 renal
Test: NCI tumour cell line growth inhibition, 48 h
Recorded metric: TGI

Consider the worked cases shown below.
>  <Compound>
O=C(O)CCCl

>  <TGI>
> 5000 µM

$$$$
>  <Compound>
Cc1ccc(S(=O)(=O)c2scc(-c3ccccc3)c2C)cc1

>  <TGI>
> 100 µM

$$$$
>  <Compound>
c1ccc(SC2(Sc3ccccc3)CCCC2)cc1

>  <TGI>
> 100 µM

$$$$

Which TGI is reported for this compound? Cc1ccc(C)c(NC(=O)C(=O)CC(=O)C2CCOC2=O)c1 (centres undefined)
> 100 µM

###

System: HCT-15 colon
Test: NCI tumour cell line growth inhibition, 48 h; in the data active = GI50 below about 0.43 µM; inactive = the rest
The categories you may choose from are TRUE (active), FALSE (inactive)

These recorded examples may help you get a feel for the data.
>  <Compound>
CCCN(CCC)CCCNCc1cc(I)cc(C)c1O

>  <Class>
FALSE

$$$$
>  <Compound>
C=CC(=O)Nc1ccc(Nc2nccc(-c3ccc(N4CCCC4)c(C#N)c3)n2)cc1

>  <Class>
FALSE

$$$$

// next entry
Test call, this compound: `Cc1nc2sccn2c1/C=C1/C(=O)Nc2ccccc21`
FALSE

###

TGI: recorded values
Tested on: HS 578T breast
Test: NCI tumour cell line growth inhibition, 48 h

>  <Compound>
O=c1cnn(C/C=C\CO)c(=O)[nH]1

>  <TGI>
> 100 µM

$$$$
>  <Compound>
Nc1nc(Cl)cc(NCC2(O)CC(CO)C2)n1 (stereo unspecified)

>  <TGI>
> 100 µM

$$$$
>  <Compound>
Cc1ccc(NCCCN2CCN(CCCNc3ccc(C)c4sc5ccccc5c(=O)c34)CC2)c2c(=O)c3ccccc3sc12

>  <TGI>
79.6 µM

$$$$

Which TGI is reported for this compound? CCOc1ccc2nc(NC(=O)C(=O)C(C(=O)c3ccccc3-c3ccccc3)C3OC(=O)c4ccccc43)sc2c1 (stereo unspecified)
> 100 µM

Okay, and `C/C=C/[C@@]1(OC(=O)c2ccccc2)C[C@@H]2CCCC[C@@H]21` ?
27.2 µM

Okay, and `CC1=NN(C(=O)c2ccccc2O)C(=O)/C1=C/c1ccc([N+](=O)[O-])cc1` ?
> 100 µM

Okay, and `OCCOc1ccc(-c2cc(-c3ccccn3)nc(-c3ccccn3)c2)cc1` ?
> 100 µM

Okay, and `COc1ccc2c(c1)C(=O)c1c-2n(CCCN)c(=O)c2ccccc12` ?
3.09 µM

Okay, and `O=S(=O)(Oc1ccc2oc3ccccc3c2c1-c1c(OS(=O)(=O)C(F)(F)F)ccc2oc3ccccc3c12)C(F)(F)F` ?
> 100 µM

Okay, and `O=C(CP(c1ccccc1)c1ccccc1)c1cccc(C(=O)CP(c2ccccc2)c2ccccc2)c1` ?
> 100 µM

Okay, and `COc1cc(/C(Cl)=C/C=C/C(=O)c2c(C)[n+]([O-])c3ccc(Cl)cc3[n+]2[O-])cc(OC)c1OC` ?
35.7 µM

###

Tested on: MOLT-4 leukemia
Test: NCI tumour cell line growth inhibition, 48 h
Recorded metric: TGI

Consider the worked cases shown below.
>  <Compound>
C[N+]1(C)CCCC1C(=O)[O-] (stereo unspecified)

>  <TGI>
> 100 µM

$$$$
>  <Compound>
O=C1C=CC2CCC1C2 (stereo unspecified)

>  <TGI>
> 100 µM

$$$$
>  <Compound>
O=[As](O)(O)c1ccc(NCc2ccccc2)cc1

>  <TGI>
> 100 µM

$$$$
>  <Compound>
Clc1ccc(-c2ccc(-c3nnc(CCc4nnc(-c5ccc(-c6ccc(Cl)cc6)o5)o4)o3)o2)cc1

>  <TGI>
> 45.3 µM

$$$$

Please provide the recorded TGI for `Cn1cc(-c2nonc2-c2c[nH]c3ccccc23)c2ccccc21` , tested on MOLT-4 leukemia.
14.8 µM

Okay, and `CC(=O)C1=C(O)C=C2Oc3c(C(=O)/C=C/c4cc(C(F)(F)F)cc(C(F)(F)F)c4)c(O)c(C)c(O)c3[C@]2(C)C1=O` ?
15 µM

Okay, and CC1CC2C3CC(F)C4=CC(=O)C=CC4(C)C3(F)C(O)CC2(C)C1(O)C(=O)COC(=O)C(C)(C)C (stereo unspecified) ?
> 100 µM

###

System: NCI-H23 lung
Test: NCI tumour cell line growth inhibition, 48 h
TGI: recorded values

Consider the worked cases shown below.
>  <Molecule>
COC(=O)[C@H](Cc1ccccc1)NC(=O)c1ccc(CNC(=O)/C=C/c2ccc(-c3ccccc3)cc2)cc1

>  <Value reported>
> 100 µM

$$$$
>  <Molecule>
O=C(c1ccccc1)c1ccc2c(c1)nc1n2C(c2c(Cl)cccc2Cl)SC1 (stereo not drawn)

>  <Value reported>
> 100 µM

$$$$

Shift focus to the following entry.
Which TGI is reported for this molecule? `O=C(O)CN(c1ccccc1)S(=O)(=O)c1ccc(NC(=O)c2ccccc2)cc1`
> 100 µM

###

System: OVCAR-8 ovarian
Test: NCI tumour cell line growth inhibition, 48 h; in the data active = GI50 below about 0.43 µM; inactive = the rest
The categories you may choose from are 1.0 (active), 0.0 (inactive)

These recorded examples may help you get a feel for the data.
>  <Structure smiles>
CCCN(CCC)CCCNCc1cc(I)cc(C)c1O

>  <Class>
0.0

$$$$
>  <Structure smiles>
COc1ccc(-c2[nH]ncc2-c2cc3c(c(OC)c2)OCC(=O)N3)cc1

>  <Class>
0.0

$$$$
>  <Structure smiles>
C=C(Cn1c(=O)c2ccccc2c2ccccc21)c1ccc(C(=O)Nc2ccccc2N)cc1

>  <Class>
0.0

$$$$

Test call, this molecule: `COc1cc(/C(Cl)=C/C=C/C(=O)c2c(C)[n+]([O-])c3ccc(Cl)cc3[n+]2[O-])cc(OC)c1OC`
0.0

Okay, and `COc1cc(C(=O)OCCCCCCCCCCC[P+](c2ccccc2)(c2ccccc2)c2ccccc2)ccc1O` ?
1.0

Okay, and `O=[N+]([O-])c1ccc(Nc2ccccc2-c2ccccc2)c2nonc12` ?
0.0

###

TGI: recorded values
System: SF-268 CNS
Test: NCI tumour cell line growth inhibition, 48 h

>  <Compound>
NS(=O)(=O)c1ccc(NC(=O)c2ccc(NC3=C(Cl)C(=O)N(Cc4ccccc4)C3=O)cc2)cc1

>  <Value reported>
> 100 µM

$$$$
>  <Compound>
C=CCC1(O)c2ccccc2C(=O)c2c(O)ccc(O)c21 (stereo not drawn)

>  <Value reported>
56.9 µM

$$$$

Which TGI is reported for this compound? `COC1=CC(c2ccc[nH]2)=N/C1=C\c1[nH]c(C)c(C(=O)OCc2ccccc2)c1C`
1.94 µM

###

TGI: recorded values
Test system: DU-145 prostate
Test: NCI tumour cell line growth inhibition, 48 h

Which TGI is reported for this molecule? `OCCOc1ccc(-c2cc(-c3ccccn3)nc(-c3ccccn3)c2)cc1`
> 30.5 µM

Okay, and O=C1CSC2(CC(/C=C/c3ccccc3)=NN2c2cccc(S(=O)(=O)O)c2)N1c1nc2ccccc2s1 (stereo not drawn) ?
54.4 µM

Okay, and `COc1cccc([C@H]2CC(=O)c3cc4c(cc3N2)OCO4)c1` ?
13.8 µM

Okay, and COc1cccc2c1C(=O)c1c(O)c3c(c(O)c1C2=O)CC(O)(C(C)=O)CC3OC1CC(N)C(O)C(C)O1 (stereo not drawn) ?
1.65 mg/L

Okay, and `O=C(O)c1ccccc1.[Ag]` ?
32.1 µM

###

Tested on: HCT-116 colon
Test: NCI tumour cell line growth inhibition, 48 h
TGI: recorded values

Consider the worked cases shown below.
>  <Structure smiles>
Cc1c2cc[nH]c(C(F)(F)F)c2cc2c1nc1ccccc12

>  <TGI>
> 125 µM

$$$$
>  <Structure smiles>
C=C(CNC(=O)Nc1ccc(-c2ccccc2)cc1)c1ccc(C(=O)Nc2ccccc2N)cc1

>  <TGI>
> 100 µM

$$$$

Shift focus to the following entry.
Which TGI is reported for this compound? `O=[As](O)(O)c1ccc(NCc2ccccc2)cc1`
> 100 µM

###

TGI: recorded values
System: UACC-257 melanoma
Test: NCI tumour cell line growth inhibition, 48 h

Consider the worked cases shown below.
>  <Molecule>
CCC(C)CN1C(=O)NC(C)(Cc2ccccc2)C1=O (stereo not given)

>  <Value reported>
> 100 µM

$$$$
>  <Molecule>
CCSc1nnc2c(-c3ccccc3)n[nH]c2n1

>  <Value reported>
> 100 µM

$$$$
>  <Molecule>
Cc1nc2c(=S)[nH]ncc2[nH]1

>  <Value reported>
> 100 µM

$$$$
>  <Molecule>
Nc1nc(N)c2ncn(CC3CCC(CO)C3)c2n1 (stereo not given)

>  <Value reported>
> 100 µM

$$$$

Shift focus to the following entry.
Which TGI is reported for this molecule? CC1=CCC[C@@]2(C)C(CC[C@@H]2C(C)/C=C/C(C)C)c2ccc(cc2C(=O)O)C[C@@H](O)CC1 (stereo not given in full)
30.5 µM
